This collection of values is drawn from the supplement of paper PMC9170038.

Below, each of the sequences is paired with its reported apparent KD of MS2 coat protein value.
- Test system: MS2 coat protein
- protocol_text: apparent KD of MS2 coat protein; designed switch direction (-1 OFF switch, 1 ON switch): 1; higher = weaker reporter binding
- particulars: Eterna round: R95; input ligand: microRNA oligo, concentration not stated
Record the value in nM, omitting the unit from your answer.

Example entries begin here.
GUCCAACAUGAGGAUCACCCAUGUCGGGCGUGCACAGGAUAUCGCGCCGGGAAAGACCAGCGAGAAGGGUGAUCGA [Leriqu] (puzzle: Same State 1) : 51.4
AGUGAACAUGAGGAUCACCCAUGUGAGAGAAGUGUAGGAUAUGUGAGGAGCAGAGGAGGGACAGAAGGACAUGGAG [JR_SS!_Sub074] (puzzle: Same State 1) : 38
AGUCCAGCCUGAGCUGGACAAAAGCAUGUACAUGAGGAUCACCCAUGUCAUGUGCAAGCUUUUUGCUCGUCUUAAUA [Zipper 49 - 5] (puzzle: Sensor for hsa-mir-208a) : 11.9

// fetch MS2 coat protein apparent KD of MS2 coat protein for AGUCCAGCCUGAGCUGGACAAAAGCAUGUACAUGAGGAUCACCCAUGUCAUGUACAAGCUUUUUGCAAAUCUUAAUA [Mat - hsa-mir-208a - Mod of JL - D34] (puzzle: Sensor for hsa-mir-208a)
14.6

// fetch MS2 coat protein apparent KD of MS2 coat protein for GAGAGAGGAAGCGAGGAUAUCGUGUUGGGUACAUGAGGAUCACCCAUGUUGUAGGUAGAGGUAGGCGAGAAGGCGCAGGAGAGGU [JR_SS2_Sub096] (puzzle: Same State 2)
67
